Assay: Cumulative dose excreted after intraduodenal administration at 6-8 hours in rats
Format: ADME, organism-based
Conditions: rat, in vivo
Property: Dose excreted (%)
Give just the number in %; leave the unit off.

Please report the recorded Dose excreted for O=C1CCC[C@H](CN2CCOCC2)OC(=O)[C@H](O)[C@H](CC2CCCCC2)NC(=O)[C@@H](NC(=O)[C@H](Cc2ccccc2)NC2CN3CCC2CC3)CO1 (stereo partly specified) .
4.4

---

Target chain: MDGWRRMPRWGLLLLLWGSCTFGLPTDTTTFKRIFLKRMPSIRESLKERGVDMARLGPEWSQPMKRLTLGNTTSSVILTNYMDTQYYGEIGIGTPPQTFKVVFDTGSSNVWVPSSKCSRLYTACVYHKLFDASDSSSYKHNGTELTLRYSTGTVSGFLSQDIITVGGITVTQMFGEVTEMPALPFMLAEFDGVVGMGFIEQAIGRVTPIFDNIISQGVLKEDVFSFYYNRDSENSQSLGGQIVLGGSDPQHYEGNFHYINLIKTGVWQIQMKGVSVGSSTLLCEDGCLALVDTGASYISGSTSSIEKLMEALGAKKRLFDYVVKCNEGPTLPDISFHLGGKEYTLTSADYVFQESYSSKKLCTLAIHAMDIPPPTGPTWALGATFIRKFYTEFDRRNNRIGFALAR
Property: pIC50
By convention, pIC50 is the negative base-10 log of a molar concentration.

{"Compound": "CCCCC1CCCC(=O)OC[C@H](NC(=O)C(Cc2ccccc2)NC(=O)OC(C)(C)C)C(=O)N[C@@H](CC2CCCCC2)[C@@H](O)C(=O)O1 (single isomer, unassigned; diastereomer 1)", "pIC50": 7.66}
{"Compound": "CC(C)(C)CC1CCCC(=O)OC[C@H](NC(=O)C(Cc2ccccc2)NC(=O)OC(C)(C)C)C(=O)N[C@@H](CC2CCCCC2)[C@@H](O)C(=O)O1 (single isomer, unassigned; diastereomer 1)", "pIC50": 7.80}

Now look at this entry.
Please report the recorded pIC50 for CC(C)(C)CC(=O)NCCOC(=O)NC(Cc1ccccc1)C(=O)N[C@H]1COC(=O)CCC[C@H](CN2CCOCC2)OC(=O)[C@H](O)[C@H](CC2CCCCC2)NC1=O (stereo partly drawn) .
9.64
